# Tested on: LOC_OS01G63280-cb003
# ASSAY_REMARKS: thermal shift delta Tm vs DMSO control; higher = stronger stabilization (binding);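 note: purified Escherichia coli-expressed rice kinase domain construct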
# MEASUREMENT_PARAMETERS: 12.5 µM; protein concentration 2 µM
Counter-ions that a name gives are not always drawn.
Catalogue of molecules with associated thermal shift delta Tm
Lab book: enter the figure in °C, no units written.

# count of solved cases: 5
COc1cc(-c2cc(-c3ccc(N4CCNCC4)cc3)cnc2C)cc(OC)c1OC
-0.05
Cc1cc(C(=O)Nc2nc3cccc(Cl)c3n2[C@@H]2CCCCN(C(=O)/C=C/CN(C)C)C2)ccn1 [Nazartinib (EGF816, NVS-816)]
0.35
COCCOc1cnc2ccn([C@H](C)c3nnc4c(F)cc(-c5cnn(C)c5)cn34)c(=O)c2c1
0.22
CCn1c(=O)c(-c2ccc(Cl)cc2Cl)cc2cnc(Nc3ccc(N4CCNCC4)c(F)c3)nc21
5.95
CC(C)(C)c1cc(NC(=O)Nc2ccc(Oc3ccnc4[nH]c(=O)cnc34)cc2F)n(-c2ccccc2)n1
10.7

thermal shift delta Tm reading for "CCNC(=O)Nc1ccc(-c2nc(N3CCOC[C@@H]3C)c3c(n2)C(C)(C)S(=O)(=O)C3)cc1" : 0.04

thermal shift delta Tm reading for "COc1cccc2cc(-c3nc([C@H]4CC[C@H](C(=O)O)CC4)n4ncnc(N)c34)[nH]c12" : 1.4

thermal shift delta Tm reading for "CC(C)n1nc(-c2ccc3oc(N)nc3c2)c2c(N)ncnc21" : 0.99

thermal shift delta Tm reading for "COc1cc2ncnc(Nc3ccc(Cl)cc3F)c2cc1OC" : 0.51

thermal shift delta Tm reading for "COc1cc2ncnc(Nc3cccc(Cl)c3F)c2cc1OC(=O)N1CCN(C)C[C@H]1C" : 0.24

thermal shift delta Tm reading for "CCc1ccc(/C=C2/SC(=S)NC2=O)cc1" : 0.27

thermal shift delta Tm reading for N=C(N)NC(=N)NCCc1ccccc1 [Phenformin HCl] : 0.18

thermal shift delta Tm reading for "CCc1cnn2c(NCc3ccc[n+]([O-])c3)cc(N3CCCC[C@H]3CCO)nc12" : 0.34

thermal shift delta Tm reading for CCN(CC)CCNC(=O)c1c(C)[nH]c(/C=C2\C(=O)Nc3ccc(F)cc32)c1C [Sunitinib Malate] : 0.02

thermal shift delta Tm reading for "COc1cc2ncc(-c3ccccc3)nc2cc1OC" : 1.35

thermal shift delta Tm reading for "C=CC(=O)Nc1cccc(Sc2nc(Nc3ccc(N4CCN(C)CC4)cc3)ncc2Cl)c1" : 0.45

thermal shift delta Tm reading for "CN1CCN(S(=O)(=O)c2ccc(-c3cnc(N)c(C(=O)Nc4cccnc4)n3)cc2)CC1" : 0.13

thermal shift delta Tm reading for "NC1(Cc2ccc(Cl)cc2)CCN(c2ncnc3[nH]ccc23)CC1" : 0.51

---

# System: LOC_OS05G16824-cb004
# ASSAY_REMARKS: thermal shift delta Tm vs DMSO control; higher = stronger stabilization (binding)
# MEASUREMENT_PARAMETERS: 12.5 µM; protein concentration 2 µM
Catalogue of molecules with associated thermal shift delta Tm
Lab book: enter the figure in °C, no units written.

CC(=O)c1c(C)c2cnc(Nc3ccc(N4CCNCC4)cn3)nc2n(C2CCCC2)c1=O
5.52
C=CC(=O)N1CCN(CCCn2c(=O)c(-c3c(Cl)c(OC)cc(OC)c3Cl)cc3cnc(NC)nc32)CC1
3.63
O=C1Nc2ccc(I)cc2/C1=C/c1cc(Br)c(O)c(Br)c1
-3.03

thermal shift delta Tm reading for "COCC(=O)NC/C=C/c1ccc2ncnc(Nc3ccc(Oc4ccc(C)nc4)c(C)c3)c2c1" : -4.84

thermal shift delta Tm reading for O=C(NC(NC(=S)Nc1ccc(F)c([N+](=O)[O-])c1)C(Cl)(Cl)Cl)C(c1ccccc1)c1ccccc1 (centres undefined) : 0.69

thermal shift delta Tm reading for "O=C(O)CCC(=O)Nc1ccc(Br)cn1" : 0.58
